Can you tell me inhibition of growth at 20 µg/mL for the items I'm about to list?
System: Fusarium oxysporum
Test: Antifungal activity against Fusarium oxysporum f. sp. lupini at 20 ug/ml after 192 hrs relative to control
Type: functional
Conditions: read-out: GI
# output: bare number, implied unit %

Per the record, CCOC(=O)N1CCC(N/C=C2\C(=O)C(O)=C(C(C)C)c3cc(C)c(-c4c(C)cc5c(c4O)/C(=C/NC4CCN(C(=O)OCC)CC4)C(=O)C(O)=C5C(C)C)c(O)c32)CC1 has inhibition of growth at 20 µg/mL of 0.4

Per the record, CCCCOCCOCCN/C=C1\C(=O)C(O)=C(C(C)C)c2cc(C)c(-c3c(C)cc4c(c3O)/C(=C/NCCOCCOCCCC)C(=O)C(O)=C4C(C)C)c(O)c21 has inhibition of growth at 20 µg/mL of 26.4

Per the record, Cc1cc2c(c(O)c1-c1c(C)cc3c(c1O)/C(=C/NCCc1cccs1)C(=O)C(O)=C3C(C)C)/C(=C/NCCc1cccs1)C(=O)C(O)=C2C(C)C has inhibition of growth at 20 µg/mL of 0.8

====

Can you tell me Radial growth inhibition of fungi (Ā) (mm) for the items I'm about to list?
System: Fusarium oxysporum
Experiment: Antifungal activity against Fusarium oxysporum f. sp. lupini at 0.1 ug/ml after 96 hrs
Type: functional

Per the record, COCCOCCOCCN/C=C1\C(=O)C(O)=C(C(C)C)c2cc(C)c(-c3c(C)cc4c(c3O)/C(=C/NCCOCCOCCOC)C(=O)C(O)=C4C(C)C)c(O)c21 has Radial growth inhibition of fungi (Ā) (mm) of 27 mm

Per the record, CCCCOCCOCCN/C=C1\C(=O)C(O)=C(C(C)C)c2cc(C)c(-c3c(C)cc4c(c3O)/C(=C/NCCOCCOCCCC)C(=O)C(O)=C4C(C)C)c(O)c21 has Radial growth inhibition of fungi (Ā) (mm) of 25.63 mm

Per the record, C=CCN/C=C1\C(=O)C(O)=C(C(C)C)c2cc(C)c(-c3c(C)cc4c(c3O)/C(=C/NCC=C)C(=O)C(O)=C4C(C)C)c(O)c21 has Radial growth inhibition of fungi (Ā) (mm) of 29.88 mm

Per the record, Cc1cc2c(c(O)c1-c1c(C)cc3c(c1O)/C(=C/NCCOCCO)C(=O)C(O)=C3C(C)C)/C(=C/NCCOCCO)C(=O)C(O)=C2C(C)C has Radial growth inhibition of fungi (Ā) (mm) of 28.5 mm

Per the record, Cc1cc2c(C(C)C)c(O)c(O)c(C=O)c2c(O)c1-c1c(C)cc2c(C(C)C)c(O)c(O)c(C=O)c2c1O has Radial growth inhibition of fungi (Ā) (mm) of 30.63 mm

====

System: Fusarium oxysporum
Assay: Antifungal activity against Fusarium oxysporum f. sp. lupini at 0.1 ug/ml after 192 hrs relative to control
Assay type: functional
Details: read-out: GI
Threshold check on inhibition of growth at 0.1 µg/mL: at or above 10% gives true, strictly below gives false.

// inclusive: inhibition of growth at 0.1 µg/mL at least 10%? input: Cc1cc2c(c(O)c1-c1c(C)cc3c(c1O)/C(=C/NCCOCCO)C(=O)C(O)=C3C(C)C)/C(=C/NCCOCCO)C(=O)C(O)=C2C(C)C
true

// inclusive: inhibition of growth at 0.1 µg/mL at least 10%? input: Cc1cc2c(C(C)C)c(O)c(O)c(C=O)c2c(O)c1-c1c(C)cc2c(C(C)C)c(O)c(O)c(C=O)c2c1O
false

// inclusive: inhibition of growth at 0.1 µg/mL at least 10%? input: CCCCOCCOCCN/C=C1\C(=O)C(O)=C(C(C)C)c2cc(C)c(-c3c(C)cc4c(c3O)/C(=C/NCCOCCOCCCC)C(=O)C(O)=C4C(C)C)c(O)c21
true

// inclusive: inhibition of growth at 0.1 µg/mL at least 10%? input: C=CCN/C=C1\C(=O)C(O)=C(C(C)C)c2cc(C)c(-c3c(C)cc4c(c3O)/C(=C/NCC=C)C(=O)C(O)=C4C(C)C)c(O)c21
false

// inclusive: inhibition of growth at 0.1 µg/mL at least 10%? input: COCCOCCOCCN/C=C1\C(=O)C(O)=C(C(C)C)c2cc(C)c(-c3c(C)cc4c(c3O)/C(=C/NCCOCCOCCOC)C(=O)C(O)=C4C(C)C)c(O)c21
true

Data provenance is ChEMBL document CHEMBL1158404.
